Provide the recorded AUC(0-t) for the entries that follow.
Assay: Rat pharmacokinetics in vivo
Details: rat, in vivo; male Sprague Dawley rats, PO 10 mg/kg; read-out: PO AUClast
Form entry: enter the amount, then its unit.

Below, 8 compounds whose answers are already recorded.
CCn1cc(C(=O)N[C@H]2N=C(c3ccccc3)c3ccccc3NC2=O)c(-c2ccc(NC3CC3)nc2F)n1 7470 ng·h/mL
CCn1ncc(C(=O)N[C@H]2N=C(c3ccccc3)c3ccccc3NC2=O)c1-c1ccc(NC(C)C)nc1F 2070 ng·h/mL
O=C(N[C@H]1N=C(c2ccccc2)c2ccccc2NC1=O)c1cnn(C2CCOCC2)c1-c1ccc(NC2CC2)nc1F 1170 ng·h/mL
CC(C)Nc1ccc(-c2c(C(=O)N[C@H]3N=C(c4ccccc4)c4cccc(F)c4NC3=O)cnn2C2CCOCC2)c(F)n1 14900 ng·h/mL
CCn1ncc(C(=O)N[C@H]2N=C(c3ccccc3)c3cccc(F)c3NC2=O)c1-c1ccc(NC2CC2)nc1F 11200 ng·h/mL
CCn1ncc(C(=O)N[C@H]2N=C(c3ccccc3)c3ccccc3NC2=O)c1-c1ccc(NC2CC2)nc1F 9020 ng·h/mL
O=C(N[C@H]1N=C(c2ccccc2)c2cccc(F)c2NC1=O)c1cnn(C2CCOCC2)c1-c1ccc(NC2CC2)nc1F 8180 ng·h/mL
CCn1cc(C(=O)N[C@H]2N=C(c3ccccc3)c3cccc(F)c3NC2=O)c(-c2ccc(NC3CC3)nc2F)n1 19400 ng·h/mL

Below is a list of compounds. For each, state its recorded AUC(0-t).
1. CC(C)Nc1ccc(-c2c(C(=O)N[C@H]3N=C(c4ccccc4)c4ccccc4NC3=O)cnn2C2CCOCC2)c(F)n1
2. O=C(N[C@H]1N=C(c2ccccc2)c2cccc(F)c2NC1=O)c1cn(C2CCOCC2)nc1-c1ccc(NC2CC2)nc1F

Solution:
["4630 ng·h/mL", "1940 ng·h/mL"]

Below is a list of compounds. For each, state its recorded AUC(0-t).
1. CCNc1ccc(-c2c(C(=O)N[C@H]3N=C(c4ccccc4)c4cccc(F)c4NC3=O)cnn2C2CCOCC2)c(F)n1
2. CC(C)(C)n1cc(C(=O)N[C@H]2N=C(c3ccccc3)c3cccc(F)c3NC2=O)c(-c2ccc(NC3CC3)nc2F)n1
3. O=C(N[C@H]1N=C(c2ccccc2)c2cccc(F)c2NC1=O)c1cnn(C2COC2)c1-c1ccc(NC2CC2)nc1F

Solution:
1. 5540 ng·h/mL
2. 8540 ng·h/mL
3. 7290 ng·h/mL

----------
Test: Dog pharmacokinetics in vivo
Conditions: plasma, male Beagle dogs, IV 0.5 mg/kg
READOUT: clearance
Form entry: enter the amount, then its unit.

Below, 3 compounds whose answers are already recorded.
CC(C)Nc1ccc(-c2c(C(=O)N[C@H]3N=C(c4ccccc4)c4cccc(F)c4NC3=O)cnn2C2CCOCC2)c(F)n1 4.1 mL/min/kg
CCn1ncc(C(=O)N[C@H]2N=C(c3ccccc3)c3ccccc3NC2=O)c1-c1ccc(NC2CC2)nc1F 10.3 mL/min/kg
CCNc1ccc(-c2c(C(=O)N[C@H]3N=C(c4ccccc4)c4cccc(F)c4NC3=O)cnn2C2CCOCC2)c(F)n1 6.5 mL/min/kg

Kindly review the next compound as well.
Exercise: Please list clearance recorded for the compound O=C(N[C@H]1N=C(c2ccccc2)c2cccc(F)c2NC1=O)c1cnn(C2CCOCC2)c1-c1ccc(NC2CC2)nc1F
Solution: 4.2 mL/min/kg
